Measured IC50, listed per entry.
# Experimental Target: recombinant human S1PR2 (Homo sapiens)
# Sequence (O95136 whole entry): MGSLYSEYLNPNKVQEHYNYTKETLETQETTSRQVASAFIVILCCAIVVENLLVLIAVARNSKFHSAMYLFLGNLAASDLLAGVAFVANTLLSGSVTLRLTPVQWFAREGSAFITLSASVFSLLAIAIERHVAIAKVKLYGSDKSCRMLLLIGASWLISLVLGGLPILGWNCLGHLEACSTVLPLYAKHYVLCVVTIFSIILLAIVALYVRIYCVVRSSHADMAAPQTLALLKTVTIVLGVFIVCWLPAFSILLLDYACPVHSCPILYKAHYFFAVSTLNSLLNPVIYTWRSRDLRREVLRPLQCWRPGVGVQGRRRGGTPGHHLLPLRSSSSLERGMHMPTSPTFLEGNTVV
# Run Description: [32P]S1P competitive binding assay, S1PR2

Examples from the recorded data:
[
  {
    "Molecule": "NNC(=O)c1ccc(-c2noc(-c3ccc(OCCF)c(C(F)(F)F)c3)n2)cc1 [10c]",
    "IC50": "> 1 µM"
  },
  {
    "Molecule": "NS(=O)(=O)c1ccc(-c2noc(-c3ccc(OCCF)c(C(F)(F)F)c3)n2)cc1",
    "IC50": "> 1 µM"
  }
]

// switching to the query molecule
Asked: Param readout= IC50; system= recombinant human S1PR2 (Homo sapiens); entry= O=C(O)CCNCc1ccc(-c2noc(-c3ccc(OCCF)c(C(F)(F)F)c3)n2)cc1 [16b] ; returns value.
Given back: > 1 µM

The reported numbers originate from paper PMC5908474.
